Molecular target: B2 bradykinin receptor (Homo sapiens)
Sequence (P30411 whole entry): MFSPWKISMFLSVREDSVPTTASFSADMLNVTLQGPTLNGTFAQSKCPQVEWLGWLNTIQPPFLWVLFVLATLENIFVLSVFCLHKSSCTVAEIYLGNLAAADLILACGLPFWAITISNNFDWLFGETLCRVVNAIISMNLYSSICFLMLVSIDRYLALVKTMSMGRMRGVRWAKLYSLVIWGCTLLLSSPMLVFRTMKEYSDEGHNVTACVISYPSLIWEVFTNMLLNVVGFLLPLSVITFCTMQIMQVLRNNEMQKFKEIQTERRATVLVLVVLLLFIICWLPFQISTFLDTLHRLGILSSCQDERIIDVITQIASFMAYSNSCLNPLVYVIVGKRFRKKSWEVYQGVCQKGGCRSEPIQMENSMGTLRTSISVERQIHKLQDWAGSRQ
Assay: Displacement of [3H]BK from human B2 receptor transfected in CHO cells
QUANTITY: Ki

{"columns": ["SMILES_STRUCTURE", "TEST_SYSTEM", "RESULT"],
 "data": [
  ["Cc1ccc2cccc(OCc3c(Cl)ccc(S(=O)(=O)NC(C)(C)C(=O)N=C(N)N)c3Cl)c2n1", "B2 bradykinin receptor (Homo sapiens)", "63.1 nM"],
  ["Cc1ccc2cccc(OCc3c(Cl)ccc(S(=O)(=O)NC(C)(C)C(=O)NCCCNCc4ccc(C(N)=O)cc4)c3Cl)c2n1", "B2 bradykinin receptor (Homo sapiens)", "126 nM"],
  ["Cc1ccc2cccc(OCc3c(Cl)ccc(S(=O)(=O)NC(C)(C)C(=O)NCC4CCNCC4)c3Cl)c2n1", "B2 bradykinin receptor (Homo sapiens)", "158 nM"]
]}
